Where do these numbers come from? They come from the supplement of paper PMC10567573.

B1: TRIM39 (parent)
chain: YPCVLATEGFTSGRHYWEVEVGDK

variants of: B1; test: protein stability index of a GFP-peptide fusion (GPS, HEK-293T) (PSI 1-6); higher = more stable; conditions: c terminus: a fixed tail appended;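 note: lentivirally expressed fusions sorted by FACS into six bins by GFP to DsRed ratio, PSI derived from sequencing read proportions per bin multiplied by bin number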
Use Yes when the recorded protein stability index is no lower than 2; use No when it is lower.

// known answers, use as guide
{"columns": ["MUTANT_NAME", "CAT"],
 "data": [
  ["V4A", "No"],
  ["D23Q", "Yes"],
  ["G22V", "No"],
  ["E18P", "No"],
  ["F10P", "Yes"]
]}

For this variant, is measured protein stability index 2 or higher? D23G No

For this variant, is measured protein stability index 2 or higher? H15W Yes

For this variant, is measured protein stability index 2 or higher? V21A Yes

For this variant, is measured protein stability index 2 or higher? G9C No

For this variant, is measured protein stability index 2 or higher? P2I No

For this variant, is measured protein stability index 2 or higher? R14Q Yes

For this variant, is measured protein stability index 2 or higher? S12M Yes

For this variant, is measured protein stability index 2 or higher? L5R No
